target: furin, P09958; experiment: furin cleavage Z-score vs untreated control; higher = more cleavage, active = 3.5 or more, inactive = 1 or less, 8 variable residues between constant flanks; details: 30 min;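 also: purified furin at 1:10 enzyme:substrate in 50 mM HEPES pH 7.5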
Sequence (P09958 whole entry): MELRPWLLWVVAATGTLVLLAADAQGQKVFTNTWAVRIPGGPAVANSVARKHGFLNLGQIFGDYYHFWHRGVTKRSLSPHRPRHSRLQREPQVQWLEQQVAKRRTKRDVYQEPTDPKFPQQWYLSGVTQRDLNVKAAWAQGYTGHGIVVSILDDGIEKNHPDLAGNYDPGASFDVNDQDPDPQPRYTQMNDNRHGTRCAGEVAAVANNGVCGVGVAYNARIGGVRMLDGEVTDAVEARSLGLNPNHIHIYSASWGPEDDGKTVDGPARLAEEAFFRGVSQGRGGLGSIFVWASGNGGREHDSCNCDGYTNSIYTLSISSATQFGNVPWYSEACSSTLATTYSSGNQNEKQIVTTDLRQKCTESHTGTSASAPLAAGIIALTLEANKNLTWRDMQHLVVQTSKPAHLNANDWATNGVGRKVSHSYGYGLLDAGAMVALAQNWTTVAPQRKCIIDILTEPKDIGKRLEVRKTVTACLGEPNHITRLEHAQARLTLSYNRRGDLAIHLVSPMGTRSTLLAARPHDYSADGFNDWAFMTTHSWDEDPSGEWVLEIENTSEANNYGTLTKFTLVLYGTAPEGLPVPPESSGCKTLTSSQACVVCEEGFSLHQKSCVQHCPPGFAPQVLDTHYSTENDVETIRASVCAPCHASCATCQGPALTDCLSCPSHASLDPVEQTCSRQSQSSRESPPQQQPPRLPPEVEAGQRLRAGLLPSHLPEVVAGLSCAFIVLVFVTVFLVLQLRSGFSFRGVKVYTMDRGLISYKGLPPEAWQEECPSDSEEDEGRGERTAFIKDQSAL
Some of the results follow. No count for the full screen is at hand.
furin cleavage Z-score below 0.6 gives F; furin cleavage Z-score at or above it gives T.

Q) Check the entry CALPSRETRYAGNASASA [FS-1364] : does furin cleavage Z-score equal or exceed 0.6?
A) F

Q) Quick one: CAFLTRLRRPAGNASASA [FS-769]
A) F

Q) And CALEGRVRRAAGNASASA [FS-268] ?
A) T

Q) Now this one: CARAKRAFLPAGNASASA [FS-1991]
A) T

Q) Repeat with CARAKRRAIRAGNASASA [FS-2637]
A) T

Q) Now try CAQHSVRKRDAGNASASA [FS-1150] .
A) T

Q) Request: CARAKRTTKRAGNASASA [FS-3241]
A) T

Q) What about this sequence? CAEPRRQRRLAGNASASA [FS-1118]
A) T

Q) Please give the result for CAVLKEVKAAAGNASASA [HC1404] too.
A) F

Q) Also check CARAKREEKKAGNASASA [FS-2634]
A) T

Q) Also need CARVKRNILAAGNASASA [FS-1872] , thanks.
A) T

Q) Again, but for CARKKREITEAGNASASA [FS-2963]
A) T

Q) Can you handle CAHWSVTKRDAGNASASA [FS-336] next?
A) T

Q) Now consider CATTPSSGSWAGNASASA [HC55] and answer again.
A) F

Q) What would you report for CAMSADLEVVAGNASASA [HC985] ?
A) F

Q) Also, CAGDSRQRRLAGNASASA [FS-424] please.
A) F

Q) Try this sequence next: CAMKSRLRRTAGNASASA [FS-1035]
A) T

Q) And CASTPCSVHLAGNASASA [HC2530] ?
A) T

Q) Same read-out for CAYLNRYKRAAGNASASA [FS-635] ?
A) T

Q) What do we get for CAGMGRVRRAAGNASASA [FS-27] ?
A) T

Q) Repeat for the following sequence: CAFREVPCHRAGNASASA [HC2427]
A) T

Q) What do you have for CAQASLLKVPAGNASASA [HC612] ?
A) F

Q) Entry CARAKRRWAPAGNASASA [FS-2638] please
A) T

Q) Moving on to the next sequence: CASRGRLRRLAGNASASA [FS-1572]
A) T

Q) // repeat for CARAKRPLMVAGNASASA [FS-2884] and report
A) F

Q) Try this sequence next: CANEITLTHPAGNASASA [HC977]
A) F

Q) Same read-out for CAMWPLLLLLAGNASASA [HC557] ?
A) F

Q) Try this sequence next: CARSIRDILAAGNASASA [FS-1840]
A) T

Q) Entry to check: CARAKKGLGMAGNASASA [FS-2128]
A) T

Q) How about CAMVVTSTWVAGNASASA [HC2146] ?
A) F
